assay: Primary qHTS for inhibitors of nuclear receptor binding SET domain protein 2 (NSD2) in an RCH-ACV wild type WT cells (2C) (AID 1645877); settings: RCH-ACV (leukaemia line) NSD2 WT (2C) viability, CellTiter-Glo, 72 h; series mostly up to 44.9 µM; note: nearly all actives have a fitted effect of over 70% in size
Inconclusive results are not listed. The source made the active and inactive calls. Calls come from the whole dose curve; as a rule, active = well fitted inhibition curve with a large enough effect; inconclusive = small, poorly fitted or top-dose-only effect; inactive = no such curve, though single readings can be large or run the other way.
Pick one and only one: active, inactive

Previously resolved entries follow.
INSERT INTO results (molecule, assigned_category) VALUES
  ('CC(C)(CO)[C@@H](O)C(=O)NCCCO', 'inactive'),
  ('COc1ccc(CCN2CCC(Nc3nc4ccccc4n3Cc3ccc(F)cc3)CC2)cc1', 'active'),
  ('CC1(C)O[C@@H]2[C@@H](CO[C@@]3(COS(N)(=O)=O)OC(C)(C)O[C@@H]23)O1', 'inactive');

Input line: Short answer needed: outcome of this test for `CCCC(=O)O[C@]1(C(=O)CO)CC[C@H]2[C@@H]3CCC4=CC(=O)CC[C@]4(C)[C@H]3[C@@H](O)C[C@@]21C` ?
Output line: active

Input line: Short answer needed: outcome of this test for `Cc1cc2c(cc1CC(=O)c1sccc1S(=O)(=O)Nc1onc(C)c1Cl)OCO2` ?
Output line: inactive

Input line: Short answer needed: outcome of this test for `CC(C)(Oc1ccc(Cl)cc1)C(=O)O` ?
Output line: inactive

* * *

test system: TAB109; assay: qHTS profiling for inhibitors of Plasmodium falciparum proliferation (AID 504749); note: nearly all actives have a fitted effect of over 60% in size; note: potency is the fitted concentration of half-maximal effect; details: P. falciparum in erythrocytes, SYBR Green DNA, 72 h; series mostly up to 28.7 µM
Results filed as inconclusive are left out. Calls of active or inactive are those of the source. Calls come from the whole dose curve; as a rule, active = well fitted inhibition curve with a large enough effect; inconclusive = small, poorly fitted or top-dose-only effect; inactive = flat fitted curve, though single readings scatter.
reported metric: Potency

INSERT INTO assay_data (compound, reported_metric, endpoint_result) VALUES
  ('COc1cc2c(cc1OC)C(=O)C(CC1CCN(Cc3ccccc3)CC1)C2 (configuration not stated)', 'Potency', 'inactive'),
  ('CC1=C(C(=O)OC(C)C)C(c2cccc([N+](=O)[O-])c2)C(C(=O)OC2CN(C(c3ccccc3)c3ccccc3)C2)=C(N)N1 (configuration not stated)', 'Potency', '6.31 µM (active)'),
  ('Cc1ncc(CSSCc2cnc(C)c(O)c2CO)c(CO)c1O', 'Potency', 'inactive'),
  ('O=C(N/N=C/c1ccccc1O)c1ccncc1', 'Potency', '12.6 µM (active)'),
  ('CCOc1ccc2nc3cc(N)ccc3c(N)c2c1', 'Potency', '3.98 µM (active)'),
  ('COc1cc2c(cc1OC)C(C(C(=O)N(CCc1ccc(OC)c(OC)c1OC)CCc1ccc(OC)c(OC)c1OC)c1ccccc1)=NCC2 (configuration not stated)', 'Potency', '3.16 µM (active)'),
  ('CCC(C(=O)OCCN(CC)CC)c1ccccc1 (configuration not stated)', 'Potency', 'inactive'),
  ('CC[N+](CC)(CCNC(=O)C(=O)NCC[N+](CC)(CC)Cc1ccccc1Cl)Cc1ccccc1Cl', 'Potency', '1.41 µM (active)'),
  ('COc1c(C)c2c(c(O)c1C/C=C(\C)CCC(=O)O)C(=O)OC2', 'Potency', '2.82 µM (active)'),
  ('CCCCN1CCCC1C(=O)Nc1c(C)cc(C)cc1C (configuration not stated)', 'Potency', 'inactive');

Input line: I have this compound here, `C#C[C@]1(OC(C)=O)CC[C@H]2[C@@H]3CCC4=C[C@@H](OC(C)=O)CC[C@@H]4[C@H]3CC[C@@]21C` , and I need its recorded Potency.
Output line: inactive

Input line: I have this compound here, `CC(=O)N/N=C/c1ccc([N+](=O)[O-])o1` , and I need its recorded Potency.
Output line: 6.31 µM (active)

Input line: I have this compound here, `CC(C)COC(=O)OCN1C(=O)CN(CCN2CC(=O)N(COC(=O)OCC(C)C)C(=O)C2)CC1=O` , and I need its recorded Potency.
Output line: inactive

Input line: I have this compound here, `Cc1cc(O)c(C(C)C)cc1Cl` , and I need its recorded Potency.
Output line: inactive

Input line: I have this compound here, `NC(=NCCCCCCN=C(N)/N=C(\N)Nc1ccc(Cl)cc1)/N=C(\N)Nc1ccc(Cl)cc1` , and I need its recorded Potency.
Output line: 3.98 µM (active)

Input line: I have this compound here, `CCOc1ccc(Cc2nccc3cc(OCC)c(OCC)cc23)cc1OCC` , and I need its recorded Potency.
Output line: inactive

Input line: I have this compound here, `CCCCC1=NC2(CCCC2)C(=O)N1Cc1ccc(-c2ccccc2-c2nn[nH]n2)cc1` , and I need its recorded Potency.
Output line: inactive

* * *

test: qHTS of pediatric cancer cell lines to identify multiple opportunities for drug repurposing: Primary screen for BT-12 cells (AID 1347101); details: BT-12 viability, CellTiter-Glo luminescence, 48 h; series mostly up to 57.3 µM; note: nearly all actives have a fitted effect of over 25% in size
Results filed as inconclusive are left out. Activity calls are given as the source filed them. Calls follow the shape of the dose curve; as a rule, active = well fitted cell-killing curve with a large enough effect; inconclusive = small, poorly fitted or top-dose-only effect; inactive = flat fitted curve, though single readings scatter.
Pick one and only one: True (active), False (inactive)

Previously resolved entries follow.
INSERT INTO assay_data (compound, assigned_category) VALUES
  ('NC[C@H]1O[C@H](O[C@H]2[C@H](O)[C@@H](O[C@H]3O[C@H](CO)[C@@H](O)[C@H](N)[C@H]3O)[C@H](N)C[C@@H]2N)[C@H](N)[C@@H](O)[C@@H]1O', 'False'),
  ('O=C(O)CNC(=O)c1ccccc1', 'False'),
  ('Cc1cc(N)c2cc(NC(=O)Nc3ccc4nc(C)cc(N)c4c3)ccc2n1', 'False'),
  ('C[n+]1c2cc(N)ccc2cc2ccc(N)cc21 (tested in a mixture with another compound)', 'True'),
  ('CC(C)COC(=O)c1ccc(N)cc1', 'False');

Input line: Short answer needed: outcome of this test for `C[C@H](CCC(=O)O)[C@H]1CC[C@H]2[C@@H]3C(=O)C[C@@H]4CC(=O)CC[C@]4(C)[C@H]3CC(=O)[C@]12C` ?
Output line: False

Input line: Short answer needed: outcome of this test for `Oc1ccc(Cl)c2cccnc12` ?
Output line: True

Input line: Short answer needed: outcome of this test for CC(Cc1ccccc1)(NC(=O)CN)c1ccccc1 (stereo unspecified) ?
Output line: False

Input line: Short answer needed: outcome of this test for `CC(C)(C)NC(=O)[C@@H]1CN(Cc2cccnc2)CCN1C[C@@H](O)C[C@@H](Cc1ccccc1)C(=O)N[C@H]1c2ccccc2C[C@H]1O` ?
Output line: False

Input line: Short answer needed: outcome of this test for `COc1cc2c(cc1OC)[C@@H]1CC(=O)[C@@H](CC(C)C)CN1CC2` ?
Output line: False

Input line: Short answer needed: outcome of this test for `CCOC(=O)n1ccn(C)c1=S` ?
Output line: False

* * *

system: AS120; experiment: qHTS profiling for inhibitors of Plasmodium falciparum proliferation (AID 504749); note: nearly all actives have a fitted effect of over 60% in size; conditions: P. falciparum in erythrocytes, SYBR Green DNA, 72 h; series mostly up to 28.7 µM
Inconclusive results are not listed. Calls of active or inactive are those of the source. The call rests on the fitted dose curve; in most records, active means well fitted inhibition curve with a large enough effect; inconclusive means small, poorly fitted or top-dose-only effect; inactive means flat fitted curve, though single readings scatter.
Pick one and only one: class 1 = active, class 0 = inactive

Input line: Short answer needed: outcome of this test for `O=C1OC(c2ccc(O)cc2)(c2ccc(O)cc2)c2ccccc21` ?
Output line: class 0

Input line: Short answer needed: outcome of this test for `C[C@H](O)C(=O)Nc1c(I)c(C(=O)NC(CO)CO)c(I)c(C(=O)NC(CO)CO)c1I` ?
Output line: class 0

Input line: Short answer needed: outcome of this test for `CCn1cc(C(=O)O)c(=O)c2cnc(N3CCCC3)nc21` ?
Output line: class 0

Input line: Short answer needed: outcome of this test for `COCc1c(C(C)C)nc(C(C)C)c(/C=C/[C@@H](O)C[C@@H](O)CC(=O)O)c1-c1ccc(F)cc1` ?
Output line: class 0

Input line: Short answer needed: outcome of this test for `CC(C)COC(=O)OCN1C(=O)CN(CCN2CC(=O)N(COC(=O)OCC(C)C)C(=O)C2)CC1=O` ?
Output line: class 0

Input line: Short answer needed: outcome of this test for `O=C(N/N=C/c1ccccc1O)c1ccncc1` ?
Output line: class 1

Input line: Short answer needed: outcome of this test for `C[C@H]1C[C@H]2[C@@H]3CCC4=CC(=O)C=C[C@]4(C)[C@@]3(Cl)[C@@H](O)C[C@]2(C)[C@@]1(O)C(=O)CO` ?
Output line: class 0

Input line: Short answer needed: outcome of this test for `CC(C)(CO)[C@@H](O)C(=O)NCCCO` ?
Output line: class 0

Input line: Short answer needed: outcome of this test for `COC(=O)[C@@H]1CC2=CC(=O)CC[C@]2(C)[C@@]23O[C@@H]2C[C@@]2(C)[C@@H](CC[C@@]24CCC(=O)O4)[C@H]13` ?
Output line: class 0

* * *

experiment: qHTS to identify inhibitors of the type 1 interferon - major histocompatibility complex class I in skeletal muscle: primary screen against the NCATS Pharmaceutical Collection (AID 1347407); settings: human skeletal muscle cells, IFN-b-induced MHC-I HiBiT luminescence, 24 h; series mostly up to 45.9 µM;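 note: luminescence of HiBiT knocked into endogenous HLA-B as interferon-induced MHC class I level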
Inconclusive results are not listed. Active and inactive are the calls of the source. The call rests on the fitted dose curve; in most records, active means well fitted inhibition curve with a large enough effect; inconclusive means small, poorly fitted or top-dose-only effect; inactive means flat fitted curve, though single readings scatter.
Pick one and only one: active, inactive

Input line: Short answer needed: outcome of this test for `O=c1[nH]c(=O)n([C@H]2CCCO2)cc1F` ?
Output line: inactive

Input line: Short answer needed: outcome of this test for `CN=C(NC#N)NCCSCc1csc(N=C(N)N)n1` ?
Output line: inactive

Input line: Short answer needed: outcome of this test for `CC(C)N=C(N)/N=C(\N)Nc1ccc(Cl)cc1` ?
Output line: inactive

Input line: Short answer needed: outcome of this test for `COc1cc(C=C2CCC/C(=C\c3ccc(O)c(OC)c3)C2=O)ccc1O` ?
Output line: active

Input line: Short answer needed: outcome of this test for `COc1cc(C(=S)N2CCOCC2)cc(OC)c1OC` ?
Output line: inactive

Input line: Short answer needed: outcome of this test for `Clc1ccc2c(c1)CCc1cccnc1C2=C1CCNCC1` ?
Output line: inactive
